System: SK-MEL-2 melanoma
assay.overview: NCI-60 one-dose screen, 48 h (100 = growth as untreated, 0 = no growth, -100 = all killed)
condition.label: 10 µM
About 83,000 compounds went through this panel and 20% of them were active in at least one assay; those are over-represented in the sample as a whole.
Could you label it met if measured growth is 50% or higher, and not met otherwise?

As a guide, the following entries are already answered.
>>> class_assignment("COc1ccc2c(c1)[n+]([O-])c(C#N)c(NC(=O)c1ccco1)[n+]2[O-]")
"met"
>>> class_assignment("Oc1[nH]c2ccc(Cl)cc2c1/C=c1/ccc2c(c1)N=C(c1cccs1)N=2")
"met"
>>> class_assignment("COc1ccc(-c2csc(NC(=O)CSc3nc(C)c(-c4ccccc4)n3Nc3ccccc3)n2)cc1")
"met"
>>> class_assignment("Nc1nc(N)c2c(ccc3nccc32)[nH]1")
"met"
>>> class_assignment("COc1ccc(C2CC(c3ccc(N(C)C)cc3)=NN2c2ccc(S(N)(=O)=O)cc2)cc1 (configuration not stated)")
"met"
>>> class_assignment("COc1ccc2nc3ccccc3c(NCCNCC(C)O)c2c1 (configuration not stated)")
"not met"

### Prompt Reported growth at or above 50%? O=C(C[n+]1ccccc1)c1ccc2ccccc2c1
### Response met

### Prompt Similarly, Clc1ccc2c(NCCCNc3nccc(Nc4ccc(Br)cc4)n3)ccnc2c1 ?
### Response not met

### Prompt Similarly, O=c1[nH]c(-c2ccc(Cl)cc2)nc2sc3c(c12)CCCC3 ?
### Response met

### Prompt Similarly, C#Cc1ccc(-n2c(/C=C/c3cc(OC)cc(OC)c3)nc3ncccc3c2=O)cc1 ?
### Response met

### Prompt Similarly, Oc1[nH]c2cc(Cl)ccc2c1/C=c1/ccc2c(c1)N=C(c1cc(F)cc(F)c1)N=2 ?
### Response not met
